assay_target: HO-2 (rat brain) (Rattus norvegicus, UniProt P23711)
Construct: brain microsomes were used as a source of HO-2; from tissue; host or cells: brain microsomal fraction of adult male Sprague-Dawley rats
Sequence (P23711 1-315): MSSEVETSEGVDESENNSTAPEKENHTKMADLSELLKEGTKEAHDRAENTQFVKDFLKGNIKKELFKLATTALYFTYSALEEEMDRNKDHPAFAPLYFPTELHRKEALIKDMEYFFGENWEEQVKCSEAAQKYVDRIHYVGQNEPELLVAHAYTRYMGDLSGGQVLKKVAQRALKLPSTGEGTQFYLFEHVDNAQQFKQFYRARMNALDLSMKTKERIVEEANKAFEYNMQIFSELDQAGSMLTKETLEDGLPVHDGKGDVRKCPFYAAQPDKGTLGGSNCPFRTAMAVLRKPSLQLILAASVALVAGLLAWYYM
assay_explanation: HO enzymatic activity, rat brain microsomal fraction (CO formation from methemalbumin)
Type: biochemical
recorded_conditions: CO formation from methemalbumin, mean ± SD of replicate experiments, read-out: IC50 HO-2 (rat brain)/μM)
Counter-ions that a name gives are not always drawn.
readout_kind: IC50

Solved entries (count: 10):
>  <compound>
O=C(CCc1ccccc1)Cn1nnc2ccccc21

>  <obs_value>
> 100 µM

$$$$
>  <compound>
Nc1cc(Cl)ccc1-c1nnn[nH]1

>  <obs_value>
> 100 µM

$$$$
>  <compound>
CCCCn1ccnc1

>  <obs_value>
> 100 µM

$$$$
>  <compound>
O=C(CCc1ccccc1)Cn1cnc(-c2ccccc2)c1 [QC-124, hydrochloride]

>  <obs_value>
145 µM

$$$$
>  <compound>
O=C(n1ccnc1)C(F)(F)F

>  <obs_value>
> 100 µM

$$$$
>  <compound>
O=C(O)Cn1ccnc1

>  <obs_value>
> 100 µM

$$$$
>  <compound>
Cl.Clc1ccc(CC[C@@]2(Cn3ccnc3)OC[C@@H](COc3ccc(-c4ccccc4)cc3)O2)cc1 [QC-129, hydrochloride]

>  <obs_value>
43 µM

$$$$
>  <compound>
COC(=O)c1cncn1CC(=O)CCc1ccccc1

>  <obs_value>
> 100 µM

$$$$
>  <compound>
c1ccc(CCC2(Cn3cccn3)OCCO2)cc1 [QC-95, hydrochloride]

>  <obs_value>
> 100 µM

$$$$
>  <compound>
c1cn(CCCCCCn2ccnc2)cn1 [QC-89, dihydrochloride]

>  <obs_value>
> 100 µM

$$$$

// query Query (compound): COC(=O)c1ncnn1CC(=O)CCc1ccccc1 ; field requested: IC50
// result > 100 µM

// query Query (compound): Cl.FC[C@@H]1CO[C@@](CCc2ccc(Cl)cc2)(Cn2ccnc2)O1 [QC-47, hydrochloride] ; field requested: IC50
// result > 100 µM

// query Query (compound): c1cn(CCCCn2ccnc2)cn1 [QC-88, dihydrochloride] ; field requested: IC50
// result > 100 µM

* * *

assay_target: HO-1 (rat spleen) (Rattus norvegicus)
Construct: Spleen microsomes were used as a source of HO-1; from tissue; host or cells: spleen microsomal fraction of adult male Sprague-Dawley rats
Sequence (P06762 1-289): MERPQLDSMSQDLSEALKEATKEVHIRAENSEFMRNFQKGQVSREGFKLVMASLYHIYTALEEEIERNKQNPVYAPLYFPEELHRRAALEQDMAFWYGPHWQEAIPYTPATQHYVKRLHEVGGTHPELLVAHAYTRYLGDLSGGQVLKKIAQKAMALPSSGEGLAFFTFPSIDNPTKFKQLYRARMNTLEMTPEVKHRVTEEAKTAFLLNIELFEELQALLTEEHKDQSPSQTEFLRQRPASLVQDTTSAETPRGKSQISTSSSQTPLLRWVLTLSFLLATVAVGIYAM
assay_explanation: HO enzymatic activity, rat spleen microsomal fraction (CO formation from methemalbumin)
Assay type: biochemical
recorded_conditions: CO formation from methemalbumin, mean ± SD of replicate experiments, read-out: IC50 HO-1 (rat spleen/μM)
Listing of entries alongside the reported IC50.

Solved entries (count: 2):
>  <molecule>
CC(=O)NCCc1c[nH]cn1 [QC-138, N-[2-(1H-Imidazol-4-yl)-ethyl]-acetamide]

>  <IC50>
> 100 µM

$$$$
>  <molecule>
CSc1nccn1CC(=O)CCc1ccccc1

>  <IC50>
> 100 µM

$$$$

Next, consider the following molecule.
// query Query (molecule): CCC(COC(C)=O)n1ccnc1 (stereo not drawn) ; field requested: IC50
// result > 100 µM
